Entries with their measured IC50, system Porcine kidney-derived DPP-IV (Sus scrofa, UniProt P22411):
Counter-ions that a name gives are not always drawn.

- COMPOUND: "CC#CCn1c(N2CCNCC2)nc2nc(Oc3ccccc3C(N)=O)n(Cc3ccc(C#N)cc3)c(=O)c21 [Example 235, trifluoroacetate]"
  TESTED_SYSTEM: "Porcine kidney-derived DPP-IV (Sus scrofa, UniProt P22411)"
  UNIT_DESCRIPTOR: "nM"
  IC50: 1.44
- COMPOUND: "CC#CCn1c(N2CCNCC2)nc2nc(Oc3ccccc3C(N)=O)n(Cc3cccc(C#N)c3)c(=O)c21 [Example 238, trifluoroacetate]"
  TESTED_SYSTEM: "Porcine kidney-derived DPP-IV (Sus scrofa, UniProt P22411)"
  UNIT_DESCRIPTOR: "nM"
  IC50: 1.19
- COMPOUND: "CC#CCn1c(N2CCNCC2)nc2nc(C(N)=O)n(C)c(=O)c21 [Example 83]"
  TESTED_SYSTEM: "Porcine kidney-derived DPP-IV (Sus scrofa, UniProt P22411)"
  UNIT_DESCRIPTOR: "nM"
  IC50: 27.4
- COMPOUND: "CC#CCn1c(N2CCNCC2)nc2nc(Oc3ccccc3CC(=O)OC)n(C)c(=O)c21 [Example 4, trifluoroacetate]"
  TESTED_SYSTEM: "Porcine kidney-derived DPP-IV (Sus scrofa, UniProt P22411)"
  UNIT_DESCRIPTOR: "nM"
  IC50: 211

Where do the numbers come from? From patent US20060100199A1.
